Every entry's value here was drawn from the supplement of paper PMC5998384.

# Test system: HeLa Kyoto;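 note: synchronized HeLa Kyoto cells (double thymidine block for G1/S, nocodazole release for mitosis), protein amounts in NP-40 versus SDS lysates quantified by mass spectrometry, three biological replicates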
# protocolText: solubility change mitosis vs G1/S (difference of NP-40 vs SDS log2 ratios) (log2 ratio difference); higher = more soluble in mitosis
Outcome: 1 for solubility change mitosis (log2) of at least -0.08; -1 for anything lower.

substance="MSESFDCAKCNESLYGRKYIQTDSGPYCVPCYDNTFANTCAECQQLIGHDSRELFYEDRHFHEGCFRCCRCQRSLADEPFTCQDSELLCNDCYCSAFSSQCSACGETVMPGSRKLEYGGQTWHEHCFLCSGCEQPLGSRSFVPDKGAHYCVPCYENKFAPRCARCSKTLTQGGVTYRDQPWHRECLVCTGCQTPLAGQQFTSRDEDPYCVACFGELFAPKCSSCKRPIVGLGGGKYVSFEDRHWHHNCFSCARCSTSLVGQGFVPDGDQVLCQGCSQAGP [FHL3]" grouplabel=-1
substance="MAAPEPLRPRLCRLVRGEQGYGFHLHGEKGRRGQFIRRVEPGSPAEAAALRAGDRLVEVNGVNVEGETHHQVVQRIKAVEGQTRLLVVDQETDEELRRRQLTCTEEMAQRGLPPAHDPWEPKPDWAHTGSHSSEAGKKDVSGPLRELRPRLCHLRKGPQGYGFNLHSDKSRPGQYIRSVDPGSPAARSGLRAQDRLIEVNGQNVEGLRHAEVVASIKAREDEARLLVVDPETDEHFKRLRVTPTEEHVEGPLPSPVTNGTSPAQLNGGSACSSRSDLPGSDKDTEDGSAWKQDPFQESGLHLSPTAAEAKEKARAMRVNKRAPQMDWNRKREIFSNF [SLC9A3R2]" grouplabel=1
substance="MDTGVIEGGLNVTLTIRLLMHGKEVGSIIGKKGESVKKMREESGARINISEGNCPERIITLAGPTNAIFKAFAMIIDKLEEDISSSMTNSTAASRPPVTLRLVVPASQCGSLIGKGGCKIKEIRESTGAQVQVAGDMLPNSTERAITIAGIPQSIIECVKQICVVMLETLSQSPPKGVTIPYRPKPSSSPVIFAGGQDRYSTGSDSASFPHTTPSMCLNPDLEGPPLEAYTIQGQYAIPQPDLTKLHQLAMQQSHFPMTHGNTGFSGIESSSPEVKGYWGLDASAQTTSHELTIPNDLIGCIIGRQGAKINEIRQMSGAQIKIANPVEGSTDRQVTITGSAASISLAQYLINVRLSSETGGMGSS [PCBP2]" grouplabel=-1
substance="MAGVRSLRCSRGCAGGCECGDKGKCSDSSLLGKRLSEDSSRHQLLQKWASMWSSMSEDASVADMERAQLEEEAAAAEERPLVFLCSGCRRPLGDSLSWVASQEDTNCILLRCVSCNVSVDKEQKLSKREKENGCVLETLCCAGCSLNLGYVYRCTPKNLDYKRDLFCLSVEAIESYVLGSSEKQIVSEDKELFNLESRVEIEKSLTQMEDVLKALQMKLWEAESKLSFATCKS [MIS18A]" grouplabel=1
substance="MNPIVVVHGGGAGPISKDRKERVHQGMVRAATVGYGILREGGSAVDAVEGAVVALEDDPEFNAGCGSVLNTNGEVEMDASIMDGKDLSAGAVSAVQCIANPIKLARLVMEKTPHCFLTDQGAAQFAAAMGVPEIPGEKLVTERNKKRLEKEKHEKGAQKTDCQKNLGTVGAVALDCKGNVAYATSTGGIVNKMVGRVGDSPCLGAGGYADNDIGAVSTTGHGESILKVNLARLTLFHIEQGKTVEEAADLSLGYMKSRVKGLGGLIVVSKTGDWVAKWTSTSMPWAAAKDGKLHFGIDPDDTTITDLP [ASRGL1]" grouplabel=-1
substance=TRIOBP grouplabel=1

Please check the record MFLVNSFLKGGGGGGGGGGGLGGGLGNVLGGLISGAGGGGGGGGGGGGGGGGGGGGTAMRILGGVISAISEAAAQYNPEPPPPRTHYSNIEANESEEVRQFRRLFAQLAGDDMEVSATELMNILNKVVTRHPDLKTDGFGIDTCRSMVAVMDSDTTGKLGFEEFKYLWNNIKRWQAIYKQFDTDRSGTICSSELPGAFEAAGFHLNEHLYNMIIRRYSDESGNMDFDNFISCLVRLDAMFRAFKSLDKDGTGQIQVNIQEWLQLTMYS [CAPNS1] and state if its solubility change mitosis (log2) is at or above -0.08.
1

Please check the record MALLLCFVLLCGVVDFARSLSITTPEEMIEKAKGETAYLPCKFTLSPEDQGPLDIEWLISPADNQKVDQVIILYSGDKIYDDYYPDLKGRVHFTSNDLKSGDASINVTNLQLSDIGTYQCKVKKAPGVANKKIHLVVLVKPSGARCYVDGSEEIGSDFKIKCEPKEGSLPLQYEWQKLSDSQKMPTSWLAEMTSSVISVKNASSEYSGTYSCTVRNRVGSDQCLLRLNVVPPSNKAGLIAGAIIGTLLALALIGLIIFCCRKKRREEKYEKEVHHDIREDVPPPKSRTSTARSYIGSNHSSLGSMSPSNMEGYSKTQYNQVPSEDFERTPQSPTLPPAKVAAPNLSRMGAIPVMIPAQSKDGSIV [CXADR] and state if its solubility change mitosis (log2) is at or above -0.08.
-1

Please check the record MNGRADFREPNAEVPRPIPHIGPDYIPTEEERRVFAECNDESFWFRSVPLAATSMLITQGLISKGILSSHPKYGSIPKLILACIMGYFAGKLSYVKTCQEKFKKLENSPLGEALRSGQARRSSPPGHYYQKSKYDSSVSGQSSFVTSPAADNIEMLPHYEPIPFSSSMNESAPTGITDHIVQGPDPNLEESPKRKNITYEELRNKNRESYEVSLTQKTDPSVRPMHERVPKKEVKVNKYGDTWDE [OCIAD1] and state if its solubility change mitosis (log2) is at or above -0.08.
1
